binders and their reported BSSL hydrolysis of triglycerides, relative value (no antibody = 100%); 0.75 ug antibody
Molecular target: T1, Human BSSL (bile salt-stimulated lipase), native (human, UniProt P19835 21-753)
T1 sequence: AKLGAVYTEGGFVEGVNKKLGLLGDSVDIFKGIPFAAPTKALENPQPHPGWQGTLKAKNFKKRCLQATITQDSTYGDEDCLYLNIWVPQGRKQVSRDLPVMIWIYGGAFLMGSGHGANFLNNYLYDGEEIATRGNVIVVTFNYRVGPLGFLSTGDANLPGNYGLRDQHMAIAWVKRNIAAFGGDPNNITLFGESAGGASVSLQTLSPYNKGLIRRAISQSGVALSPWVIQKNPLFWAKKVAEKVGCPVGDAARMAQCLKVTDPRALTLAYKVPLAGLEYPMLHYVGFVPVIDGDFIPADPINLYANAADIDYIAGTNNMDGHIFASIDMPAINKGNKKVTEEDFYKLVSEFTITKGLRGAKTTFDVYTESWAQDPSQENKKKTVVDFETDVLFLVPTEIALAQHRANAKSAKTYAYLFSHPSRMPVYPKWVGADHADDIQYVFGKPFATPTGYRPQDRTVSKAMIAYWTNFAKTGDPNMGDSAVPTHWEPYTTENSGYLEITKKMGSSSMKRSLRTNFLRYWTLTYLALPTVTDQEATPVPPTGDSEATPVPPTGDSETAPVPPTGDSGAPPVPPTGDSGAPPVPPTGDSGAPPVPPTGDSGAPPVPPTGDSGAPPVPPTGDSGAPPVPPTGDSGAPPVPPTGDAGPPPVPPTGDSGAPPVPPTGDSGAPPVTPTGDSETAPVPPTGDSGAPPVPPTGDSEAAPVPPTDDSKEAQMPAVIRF
Test: cell-based or functional assay
Provide only the numeric value, understood in %.

Previously resolved entries follow.
>>> obs_value("S-SL048-118 hIgG4 S228P (antibody, V domains shown, also called clone 118; mAb118) VH: QVQLVQSGAEVKKPGASVKVSCKASGYTFTSYNMHWVRQAPGQGLEWMGVINPGDGATSYAQKFKGRVTMTRDTSTSTVYMELSSLRSEDTAVYYCARDYYGSSPLGYWGQGTLVTVSS VL: DIQMTQSPSSLSASVGDRVTITCSASPSISYMNWYQQKPGKAPKLLIYATSSLPSGVPSRFSGSGSGTDFTLTISSLQPEDFATYYCHQRSSSPTFGQGTKLEIKR")
102
>>> obs_value("S-SL048-106 hIgG4 S228P (antibody, V domains shown, also called mAb106) VH: QVQLVQSGAEVKKPGASVKVSCKASGYTFTSYNMHWVRQAPGQGLEWIGVIYPGDGSTSYNQKFQGRVTMTRDTSTSTVYMELSSLRSEDTAVYYCARDYYGSSPLGYWGQGTLVTVSS VL: DIQMTQSPSSLSASVGDRVTITCSASSSISYMNWYQQKPGKAPKLLIYATSKLPSGVPSRFSGSGSGTDFTLTISSLQPEDFATYYCHQRSSTPTFGQGTKLEIKR")
129
>>> obs_value("S-SL048-46 hIgG4 S228P (antibody, V domains shown, also called clone 46; mAb46) VH: QVQLVQSGAEVKKPGASVKVSCKASGYTFTSYNMHWVRQAPGQGLEWMGVINPGDGATSYNQKFQGRVTMTRDTSTSTVYMELSSLRSEDTAVYYCARDYYGSSPLGYWGQGTLVTVSS VL: DIQMTQSPSSLSASVGDRVTITCRASSSISYLNWYQQKPGKAPKLLIYAASSLASGVPSRFSGSGSGTDFTLTISSLQPEDFATYYCHQRSSSPTFGQGTKLEIKR")
121

Let's switch to this binder now.
Ask: Need BSSL hydrolysis of triglycerides, relative value (no antibody = 100%); 0.75 ug antibody of S-SL048-11 hIgG4 S228P (antibody, V domains shown, also called clone 11; mAb11) VH: QVQLVQSGAEVKKPGASVKVSCKASGYTFTSYNMHWVRQAPGQGLEWMGVIYPGDGATSYAQKFKGRVTMTRDTSTSTVYMELSSLRSEDTAVYYCARDYYGSSPLGYWGQGTLVTVSS VL: DIQMTQSPSSLSASVGDRVTITCSASPSISYMNWYQQKPGKAPKLLIYATSSLASGVPSRFSGSGSGTDFTLTISSLQPEDFATYYCHQRSSYPTFGQGTKLEIKR , thanks.
Reply: 125

Sourced from patent US20220267469A1
